- procedure_details: Oral dose pharmacokinetics
- Type: in vivo, Sprague–Dawley rats
- recorded_conditions: male, Sprague-Dawley, rat, brain/plasma, po, 2 mg/kg
Provide the recorded Kp at 24 h for the entries that follow.
Answers are plain numbers.

molecule	recorded_metric	numeric_value
C#Cc1ccc2c(c1)C(c1ccccn1)=NCc1c(-c3cnco3)ncn1-2	Kp at 24 h	0.77

[Q] Look up Kp at 24 h of C#Cc1ccc2c(c1)C(c1ccccn1)=NCc1c(-c3cnco3)ncn1-2.Cl [KRM-II-81·HCl] and report it.
[A] 1
